- System: HCC461 cells
- Test name: Cell viability assay in HCC461 cells (WST-1)
- Format: cell-based
- Conditions: HCC461, 48 h, 48 hrs incubation; Table 2 experiment
# IC50 listing for each entry below
# answer = value followed by unit

Take a look at these entries with their results.
CN[C@@H](C)C(=O)N[C@H](C(=O)N1C[C@@H](NC(=O)CC(C)(O)CC(=O)N[C@H]2C[C@@H](C(=O)N[C@@H]3CCCc4ccccc43)N(C(=O)[C@@H](NC(=O)[C@H](C)NC)C(C)(C)C)C2)C[C@H]1C(=O)N[C@@H]1CCCc2ccccc21)C(C)(C)C [compound 26] ... 0.023 µM
CN[C@@H](C)C(=O)N[C@H](C(=O)N1C[C@@H](NC(=O)[C@@H]2CC[C@](C)(C(=O)N[C@H]3C[C@@H](C(=O)N[C@@H]4CCCc5ccccc54)N(C(=O)[C@@H](NC(=O)[C@H](C)NC)C(C)(C)C)C3)C2(C)C)C[C@H]1C(=O)N[C@@H]1CCCc2ccccc21)C(C)(C)C [compound 31] ... 0.003 µM
CN[C@@H](C)C(=O)N[C@H](C(=O)N1C[C@@H](NC(=O)C23CC4CC(C2)CC(C(=O)N[C@H]2C[C@@H](C(=O)N[C@@H]5CCCc6ccccc65)N(C(=O)[C@@H](NC(=O)[C@H](C)NC)C(C)(C)C)C2)(C4)C3)C[C@H]1C(=O)N[C@@H]1CCCc2ccccc21)C(C)(C)C [compound 29] ... 0.005 µM
CN[C@@H](C)C(=O)N[C@@H](CC#CC#CC[C@H](NC(=O)[C@H](C)NC)C(=O)N1CCC[C@H]1C(=O)N[C@@H]1CCCc2ccccc21)C(=O)N1CCC[C@H]1C(=O)N[C@@H]1CCCc2ccccc21.Cl.Cl [Ref cpd, reference compound] ... 0.063 µM

Next:
Req: Retrieve IC50 measured for CN[C@@H](C)C(=O)N[C@H](C(=O)N1C[C@@H](NC(=O)c2cc(N)cc(C(=O)N[C@H]3C[C@@H](C(=O)N[C@@H]4CCCc5ccccc54)N(C(=O)[C@@H](NC(=O)[C@H](C)NC)C(C)(C)C)C3)c2)C[C@H]1C(=O)N[C@@H]1CCCc2ccccc21)C(C)(C)C [compound 32] and print it.
Resp: 0.015 µM

----------
- Test system: truncated XIAP containing only BIR1, BIR2, and BIR3 domains (Homo sapiens, UniProt P98170)
- Sequence (P98170 26-330 limits assumed): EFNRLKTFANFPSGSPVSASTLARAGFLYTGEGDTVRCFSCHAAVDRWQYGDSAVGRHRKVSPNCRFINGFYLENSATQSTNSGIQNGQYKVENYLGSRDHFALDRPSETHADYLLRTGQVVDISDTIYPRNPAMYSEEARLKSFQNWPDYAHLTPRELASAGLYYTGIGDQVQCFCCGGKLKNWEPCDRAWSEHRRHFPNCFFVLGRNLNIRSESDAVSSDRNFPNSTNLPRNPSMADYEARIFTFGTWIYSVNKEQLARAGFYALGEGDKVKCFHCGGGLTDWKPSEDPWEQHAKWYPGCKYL
- Test name: Fluorescent polarization (FP) assay
- Assay type: binding
- Conditions: Table 1 experiment
# Ki listing for each entry below
Your answer should be a plain number; it is taken to be in µM.

Take a look at these entries with their results.
CN[C@@H](C)C(=O)N[C@H](C(=O)N1C[C@@H](NC(=O)c2cc(O)cc(C(=O)N[C@H]3C[C@@H](C(=O)N[C@@H]4CCCc5ccccc54)N(C(=O)[C@@H](NC(=O)[C@H](C)NC)C(C)(C)C)C3)c2)C[C@H]1C(=O)N[C@@H]1CCCc2ccccc21)C(C)(C)C.Cl.Cl ... 0.44
CN[C@@H](C)C(=O)NC(C(=O)C1C[C@@H](NC(=O)C2CCCC2C(=O)N[C@H]2CC(C(=O)N[C@@H]3CCCc4ccccc43)N(C(=O)[C@@H](NC(=O)[C@H](C)NC)C(C)(C)C)C2)CC1C(=O)N[C@@H]1CCCc2ccccc21)C(C)(C)C.Cl.Cl (single isomer, unassigned) [compound 18] ... 0.35
CN[C@@H](C)C(=O)N[C@H](C(=O)N1C[C@@H](NS(=O)(=O)c2cccc(S(=O)(=O)N[C@H]3C[C@@H](C(=O)N[C@@H]4CCCc5ccccc54)N(C(=O)[C@@H](NC(=O)[C@H](C)NC)C(C)(C)C)C3)c2)C[C@H]1C(=O)N[C@@H]1CCCc2ccccc21)C(C)(C)C.Cl.Cl ... 0.3
CN[C@@H](C)C(=O)N[C@@H](CC#CC#CC[C@H](NC(=O)[C@H](C)NC)C(=O)N1CCC[C@H]1C(=O)N[C@@H]1CCCc2ccccc21)C(=O)N1CCC[C@H]1C(=O)N[C@@H]1CCCc2ccccc21.Cl.Cl [Ref cpd, reference compound] ... 0.35

Req: Retrieve Ki measured for CN[C@@H](C)C(=O)NC(C(=O)C1C[C@@H](NC(=O)c2cccc(C(=O)N[C@H]3CC(C(=O)N[C@@H]4CCCc5ccccc54)N(C(=O)[C@@H](NC(=O)[C@H](C)NC)C(C)(C)C)C3)c2)CC1C(=O)N[C@@H]1CCCc2ccccc21)C(C)(C)C.Cl.Cl (some centres unmarked) and print it.
Resp: 0.45

----------
# Ki listing for each entry below
- Test system: truncated XIAP containing only BIR1, BIR2, and BIR3 domains (Homo sapiens)
- Test name: Fluorescent polarization (FP) assay
- Type: binding
- Conditions: Table 1 experiment
Your answer should be a plain number; it is taken to be in µM.

Req: Retrieve Ki measured for CN[C@@H](C)C(=O)N[C@H](C(=O)N1C[C@@H](NC(=O)c2cc(C(=O)N[C@H]3C[C@@H](C(=O)N[C@@H]4CCCc5ccccc54)N(C(=O)[C@@H](NC(=O)[C@H](C)NC)C(C)(C)C)C3)[nH]n2)C[C@H]1C(=O)N[C@@H]1CCCc2ccccc21)C(C)(C)C.Cl.Cl and print it.
Resp: 0.45

Req: Retrieve Ki measured for CN[C@@H](C)C(=O)N[C@H](C(=O)N1C[C@@H](NC(=O)c2ccc(C(=O)N[C@H]3C[C@@H](C(=O)N[C@@H]4CCCc5ccccc54)N(C(=O)[C@@H](NC(=O)[C@H](C)NC)C(C)(C)C)C3)s2)C[C@H]1C(=O)N[C@@H]1CCCc2ccccc21)C(C)(C)C.Cl.Cl and print it.
Resp: 0.4

Req: Retrieve Ki measured for CN[C@@H](C)C(=O)N[C@H](C(=O)N1C[C@@H](NC(=O)CN(C)CC(=O)N[C@H]2C[C@@H](C(=O)N[C@@H]3CCCc4ccccc43)N(C(=O)[C@@H](NC(=O)[C@H](C)NC)C(C)(C)C)C2)C[C@H]1C(=O)N[C@@H]1CCCc2ccccc21)C(C)(C)C.Cl.Cl.Cl and print it.
Resp: 0.4

Req: Retrieve Ki measured for CN[C@@H](C)C(=O)NC(C(=O)C1C[C@@H](NC(=O)C2CCCC2C(=O)N[C@H]2CC(C(=O)N[C@@H]3CCCc4ccccc43)N(C(=O)[C@@H](NC(=O)[C@H](C)NC)C(C)(C)C)C2)CC1C(=O)N[C@@H]1CCCc2ccccc21)C(C)(C)C.Cl.Cl (single isomer, unassigned) [compound 17] and print it.
Resp: 0.5

----------
# IC50 listing for each entry below
- Test system: HCC461 cells
- Test name: Cell viability assay in HCC461 cells (WST-1)
- Type: cell-based
- Conditions: HCC461, 48 h, 48 hrs incubation; Table 2 experiment
Your answer should be a plain number; it is taken to be in µM.

CN[C@@H](C)C(=O)NC(C(=O)C1C[C@@H](NC(=O)C2CCCC(C(=O)N[C@H]3CC(C(=O)N[C@@H]4CCCc5ccccc54)N(C(=O)[C@@H](NC(=O)[C@H](C)NC)C(C)(C)C)C3)C2)CC1C(=O)N[C@@H]1CCCc2ccccc21)C(C)(C)C (some centres unmarked) [compound 25] ... 0.024

Req: Retrieve IC50 measured for CN[C@@H](C)C(=O)N[C@H](C(=O)N1C[C@@H](NC(=O)[C@H]2CC[C@@](C)(C(=O)N[C@H]3C[C@@H](C(=O)N[C@@H]4CCCc5ccccc54)N(C(=O)[C@@H](NC(=O)[C@H](C)NC)C(C)(C)C)C3)C2(C)C)C[C@H]1C(=O)N[C@@H]1CCCc2ccccc21)C(C)(C)C [compound 30] and print it.
Resp: 0.008

----------
# Ki listing for each entry below
- Test system: truncated XIAP containing only BIR1, BIR2, and BIR3 domains (Homo sapiens)
- Test name: Fluorescent polarization (FP) assay
- Format: binding
- Conditions: Table 2 experiment
Your answer should be a plain number; it is taken to be in µM.

Take a look at these entries with their results.
CN[C@@H](C)C(=O)N[C@H](C(=O)N1C[C@@H](NC(=O)[C@@H]2CC[C@](C)(C(=O)N[C@H]3C[C@@H](C(=O)N[C@@H]4CCCc5ccccc54)N(C(=O)[C@@H](NC(=O)[C@H](C)NC)C(C)(C)C)C3)C2(C)C)C[C@H]1C(=O)N[C@@H]1CCCc2ccccc21)C(C)(C)C ... 0.34
CN[C@@H](C)C(=O)N[C@@H](CC#CC#CC[C@H](NC(=O)[C@H](C)NC)C(=O)N1CCC[C@H]1C(=O)N[C@@H]1CCCc2ccccc21)C(=O)N1CCC[C@H]1C(=O)N[C@@H]1CCCc2ccccc21.Cl.Cl [Ref cpd, reference compound] ... 0.15

Req: Retrieve Ki measured for CN[C@@H](C)C(=O)N[C@H](C(=O)N1C[C@@H](NC(=O)CC(C)(O)CC(=O)N[C@H]2C[C@@H](C(=O)N[C@@H]3CCCc4ccccc43)N(C(=O)[C@@H](NC(=O)[C@H](C)NC)C(C)(C)C)C2)C[C@H]1C(=O)N[C@@H]1CCCc2ccccc21)C(C)(C)C and print it.
Resp: 0.32

FYI, the data here is from patent US8642554B2.
